Test: Protein binding in human plasma at 10 uM after 4 hrs by equilibrium dialysis method
Format: ADME, cell-free
Conditions: read-out: PPB (converted)
Measured fraction unbound at 4 h, 10 µM of individual entries
Measured metric: fraction unbound at 4 h, 10 µM

>>> numeric_value("CNC(=O)c1cc(Oc2ccc3nc(N[C@@H]4CCCC[C@H]4O)sc3c2)ccn1")
0.037
>>> numeric_value("CNC(=O)c1cc(Oc2ccc3nc(N[C@@H]4CCCC[C@@H]4O)sc3c2)ccn1")
0.031
